- tgt: UniProtKB Q96LD8
- Sequence (Q96LD8 whole entry): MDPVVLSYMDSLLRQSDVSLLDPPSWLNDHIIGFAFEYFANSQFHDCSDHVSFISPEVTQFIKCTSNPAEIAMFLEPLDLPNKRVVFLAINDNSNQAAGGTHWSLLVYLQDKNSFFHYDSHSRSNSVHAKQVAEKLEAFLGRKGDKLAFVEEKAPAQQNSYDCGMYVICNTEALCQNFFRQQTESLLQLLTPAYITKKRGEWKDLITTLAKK
- Type: functional
Calls of active or inactive are those of the source.
Write down the outcome that applies. Available outcomes: T = active, F = inactive

Look over these answered cases.
1) Cc1ccc(/C=N/c2ccc(N(C)C)cc2)o1 | F
2) CN(C)CCN(C(=O)c1ccc(N2C(=O)CCC2=O)cc1)c1nc2cc3c(cc2s1)OCO3 | T
3) COc1ccc2c(c1)Cc1sc(NC(C)=O)nc1-2 | T

In the following, a different compound is considered.
Task item: Recorded call for O=S1(=O)NC2c3ccccc3CC2O1 (centres undefined) ?
Reply: T

---

- tgt: UniProtKB Q62848
- Sequence (Q62848 whole entry): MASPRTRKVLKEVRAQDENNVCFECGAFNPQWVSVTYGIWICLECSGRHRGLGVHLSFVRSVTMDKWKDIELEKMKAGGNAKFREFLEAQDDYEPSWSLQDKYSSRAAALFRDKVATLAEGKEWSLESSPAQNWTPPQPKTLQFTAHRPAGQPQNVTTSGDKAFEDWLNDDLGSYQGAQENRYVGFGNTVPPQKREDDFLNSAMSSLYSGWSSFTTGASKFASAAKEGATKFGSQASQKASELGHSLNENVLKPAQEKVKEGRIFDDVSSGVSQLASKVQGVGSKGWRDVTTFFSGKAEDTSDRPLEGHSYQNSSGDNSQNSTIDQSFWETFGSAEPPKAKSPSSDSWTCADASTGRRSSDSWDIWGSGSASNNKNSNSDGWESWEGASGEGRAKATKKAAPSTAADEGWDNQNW
- method_description: Fluorescence polarization-based biochemical high throughput dose response screening assay to identify inhibitors of ADP-ribosylation factor GTPase activating protein 1 (ARFGAP1).
- Type: functional
Calls of active or inactive are those of the source.
Listed here are molecules together with their documented IC50.

1) N#Cc1c(NC(=O)C2CC(c3c(F)cccc3Cl)=NO2)sc2c1CCC2 (centres undefined) | 43.6 µM (inactive)

Task item: Give the measured IC50 of Clc1cccc(Cl)c1CONC=Nc1ncnc2sccc12 .
Reply: 30.3 µM (inactive)

Task item: Which IC50 is reported for this molecule? Cc1ccc2nc(SCC(=O)N3CCCC3)nc(=O)n2c1
Reply: 45.2 µM (inactive)

Task item: Report IC50 for O=C(/C=C/c1ccccc1)Nc1nc(-c2ccncc2)cs1 please.
Reply: 28.8 µM (inactive)

---

- tgt: Short transient receptor potential channel 4 (Mus musculus, UniProt Q9QUQ5)
- Sequence (Q9QUQ5 whole entry): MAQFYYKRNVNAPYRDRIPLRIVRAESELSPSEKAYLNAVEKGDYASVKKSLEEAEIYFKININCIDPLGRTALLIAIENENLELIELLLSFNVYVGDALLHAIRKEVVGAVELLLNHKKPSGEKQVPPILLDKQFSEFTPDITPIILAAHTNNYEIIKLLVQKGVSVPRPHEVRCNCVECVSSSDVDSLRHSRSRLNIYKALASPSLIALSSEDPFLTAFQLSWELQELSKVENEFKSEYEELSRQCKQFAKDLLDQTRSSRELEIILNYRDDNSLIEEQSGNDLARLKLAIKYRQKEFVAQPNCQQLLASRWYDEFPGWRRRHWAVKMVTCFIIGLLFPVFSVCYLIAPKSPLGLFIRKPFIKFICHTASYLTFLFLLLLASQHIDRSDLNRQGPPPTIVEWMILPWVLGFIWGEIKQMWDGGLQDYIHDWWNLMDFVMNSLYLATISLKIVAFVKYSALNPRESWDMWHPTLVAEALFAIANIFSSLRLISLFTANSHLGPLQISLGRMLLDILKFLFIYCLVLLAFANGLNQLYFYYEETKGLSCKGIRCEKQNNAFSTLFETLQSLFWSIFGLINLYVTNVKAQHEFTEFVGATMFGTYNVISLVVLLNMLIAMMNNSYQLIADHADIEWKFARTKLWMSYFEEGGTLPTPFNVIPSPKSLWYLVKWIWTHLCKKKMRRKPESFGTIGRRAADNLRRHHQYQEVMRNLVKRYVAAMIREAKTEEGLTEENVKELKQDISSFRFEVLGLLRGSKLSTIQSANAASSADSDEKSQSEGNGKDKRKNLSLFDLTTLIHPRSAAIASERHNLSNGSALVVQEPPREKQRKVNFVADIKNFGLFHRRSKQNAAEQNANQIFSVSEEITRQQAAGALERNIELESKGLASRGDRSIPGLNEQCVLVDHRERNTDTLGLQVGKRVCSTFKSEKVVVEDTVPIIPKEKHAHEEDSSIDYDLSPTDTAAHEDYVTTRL
- method_description: mouse TRPC4 channel inhibitors, dose response, cell-based, HEK293 TRPC4/mu-opioid, Fluo-4 calcium (AID 434942);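 also: potency of inhibitors blocking the TRPC4 calcium response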
- Assay type: functional
The source made the active and inactive calls.
measured_attribute: EC50

1. CCOc1ccc(CN2CCN(C(=O)c3ccccc3)CC2)cc1 | 6.68 µM (active)
2. Cn1c(-c2ccccc2)cnc1NCc1ccccc1 | 5.31 µM (active)
3. CC(C)n1c(NCc2c[nH]c3ccccc23)nc2ccccc21 | 1.68 µM (active)

Task item: What value of measured EC50 is listed for Cc1ccc2cc(CN(CCN3CCOCC3)C(=O)NCc3ccccc3)c(O)nc2c1C ?
Reply: 4.22 µM (active)

Task item: Report EC50 for Cc1cccc(N(Cc2ccccc2)C(=O)CSC(C)C(=O)Nc2cc(C)on2)c1 (stereo not given) please.
Reply: 2.11 µM (active)
